- System: 953936-095-R-J2-PDC spheroids with HUVEC/MSC, viability;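 also: spheroids exposed to compounds for seven days before read-out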
- assay-details: Anticancer human tumor 953936-095-R-J2-PDC patient-derived cervical squamous cell carcinoma cell line growth inhibition [PI3K]; active = viability on the fitted dose curve at most 10% of control; inactive = the rest
- particulars: second compound 0.1 µM; first compound 3.16 µM
Classes used: 1 = active, -1 = inactive

| compound | target-entity | group-label |
| --- | --- | --- |
| CC(Cn1ccc(-c2ccc(C#N)c(Cl)c2)n1)NC(=O)c1cc(C(C)O)[nH]n1 (stereo unspecified) + CC(Nc1ccc2c(c1)OCCn1cc(N3C(=O)OCC3C(F)F)nc1-2)C(N)=O | 953936-095-R-J2-PDC spheroids with HUVEC/MSC, viability | -1 |
| CNC(=O)c1ccc(N2C(=S)N(c3ccc(C#N)c(C(F)(F)F)c3)C(=O)C2(C)C)cc1F + COc1c(OCCCN2CCOCC2)ccc2c3n(c(=NC(=O)c4cnc(N)nc4)nc12)CCN3 | 953936-095-R-J2-PDC spheroids with HUVEC/MSC, viability | -1 |
| CC(C)NCC(C(=O)N1CCN(c2ncnc3c2C(C)CC3O)CC1)c1ccc(Cl)cc1 (stereo unspecified) + CC(Nc1ccc2c(c1)OCCn1cc(N3C(=O)OCC3C(F)F)nc1-2)C(N)=O | 953936-095-R-J2-PDC spheroids with HUVEC/MSC, viability | -1 |
| CC1(C)CCC(Nc2ncc(C(F)(F)F)c(-c3c[nH]c4c(P(C)(C)=O)c(C#N)ccc34)n2)CN1 (stereo unspecified) + COc1c(OCCCN2CCOCC2)ccc2c3n(c(=NC(=O)c4cnc(N)nc4)nc12)CCN3 | 953936-095-R-J2-PDC spheroids with HUVEC/MSC, viability | 1 |
| Cn1ncc(Cl)c1-c1cc(C(=O)NC(CN)Cc2cccc(F)c2)sc1Cl (stereo unspecified) + CC(Nc1ncnc2nc[nH]c12)c1cc2cccc(Cl)c2c(=O)n1-c1ccccc1 | 953936-095-R-J2-PDC spheroids with HUVEC/MSC, viability | -1 |
| CCCS(=O)(=O)Nc1ccc(F)c(C(=O)c2c[nH]c3ncc(-c4ccc(Cl)cc4)cc23)c1F + CC(Nc1ccc2c(c1)OCCn1cc(N3C(=O)OCC3C(F)F)nc1-2)C(N)=O | 953936-095-R-J2-PDC spheroids with HUVEC/MSC, viability | -1 |

Data origin: PubChem BioAssay AID1963971
